The entries below are paired with their reported pIC50.
Target: human neutrophil elastase (HNE) (Homo sapiens, UniProt P08246)
Sequence (P08246 30-267): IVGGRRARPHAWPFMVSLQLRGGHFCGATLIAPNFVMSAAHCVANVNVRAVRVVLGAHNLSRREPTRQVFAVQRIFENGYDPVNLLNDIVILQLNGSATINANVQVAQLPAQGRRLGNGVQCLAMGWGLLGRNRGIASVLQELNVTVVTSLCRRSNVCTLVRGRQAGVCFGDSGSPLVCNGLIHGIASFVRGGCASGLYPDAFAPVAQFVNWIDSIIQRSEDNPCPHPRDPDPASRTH
Experiment: HNE inhibition assay
pIC50: −log10 of the molar value.
QUANTITY: pIC50

INSERT INTO measurements (molecule, reported_measurement) VALUES
  ('Cc1cccc(C(=O)n2c(C#N)cc3cccnc32)c1', 5.46),
  ('Cc1cccc(C(=O)n2cc(C#N)c3cc(Cl)cnc32)c1', 6.80),
  ('Cc1cccc(C(=O)n2c(C)c(C#N)c3cccnc32)c1', 4.97),
  ('Cc1cccc(C(=O)n2cc(C#N)c3cc(Br)cnc32)c1', 7.29),
  ('Cc1cccc(C(=O)n2cc(C#N)c3cc([N+](=O)[O-])cnc32)c1', 6.40),
  ('COc1ccc2cc(-c3cnc4c(c3)c(C#N)cn4C(=O)c3cccc(C)c3)ccc2c1 [Compound 14e]', 5.80),
  ('COc1cccc(-c2cnc3c(c2)c(C#N)cn3C(=O)c2cccc(C)c2)c1 [Compound 14d]', 7.15),
  ('Cc1cccc(C(=O)n2cc(C#N)c3cc(-c4ccsc4)cnc32)c1 [Compound 14f]', 7.38),
  ('Cc1cccc(C(=O)n2cc(C#N)c3cc(-c4cccc(C)c4)cnc32)c1 [Compound 14c]', 6.89),
  ('Cc1cccc(C(=O)n2cc(C#N)c3cc(-c4cccnc4)cnc32)c1 [Compound 14g]', 7.82),
  ('Cc1cccc(C(=O)n2cc(C#N)c3cc(-c4cccc(C(F)(F)F)c4)cnc32)c1 [Compound 14b]', 6.74),
  ('Cc1cccc(C(=O)n2cc(C#N)c3cc(-c4ccccc4)cnc32)c1 [Compound 14a]', 7.30);
